In this section, each of the molecules is paired with its reported efflux ratio.
Target: P-gp (ABCB1) (Homo sapiens, UniProt P08183)
Sequence (P08183 whole entry): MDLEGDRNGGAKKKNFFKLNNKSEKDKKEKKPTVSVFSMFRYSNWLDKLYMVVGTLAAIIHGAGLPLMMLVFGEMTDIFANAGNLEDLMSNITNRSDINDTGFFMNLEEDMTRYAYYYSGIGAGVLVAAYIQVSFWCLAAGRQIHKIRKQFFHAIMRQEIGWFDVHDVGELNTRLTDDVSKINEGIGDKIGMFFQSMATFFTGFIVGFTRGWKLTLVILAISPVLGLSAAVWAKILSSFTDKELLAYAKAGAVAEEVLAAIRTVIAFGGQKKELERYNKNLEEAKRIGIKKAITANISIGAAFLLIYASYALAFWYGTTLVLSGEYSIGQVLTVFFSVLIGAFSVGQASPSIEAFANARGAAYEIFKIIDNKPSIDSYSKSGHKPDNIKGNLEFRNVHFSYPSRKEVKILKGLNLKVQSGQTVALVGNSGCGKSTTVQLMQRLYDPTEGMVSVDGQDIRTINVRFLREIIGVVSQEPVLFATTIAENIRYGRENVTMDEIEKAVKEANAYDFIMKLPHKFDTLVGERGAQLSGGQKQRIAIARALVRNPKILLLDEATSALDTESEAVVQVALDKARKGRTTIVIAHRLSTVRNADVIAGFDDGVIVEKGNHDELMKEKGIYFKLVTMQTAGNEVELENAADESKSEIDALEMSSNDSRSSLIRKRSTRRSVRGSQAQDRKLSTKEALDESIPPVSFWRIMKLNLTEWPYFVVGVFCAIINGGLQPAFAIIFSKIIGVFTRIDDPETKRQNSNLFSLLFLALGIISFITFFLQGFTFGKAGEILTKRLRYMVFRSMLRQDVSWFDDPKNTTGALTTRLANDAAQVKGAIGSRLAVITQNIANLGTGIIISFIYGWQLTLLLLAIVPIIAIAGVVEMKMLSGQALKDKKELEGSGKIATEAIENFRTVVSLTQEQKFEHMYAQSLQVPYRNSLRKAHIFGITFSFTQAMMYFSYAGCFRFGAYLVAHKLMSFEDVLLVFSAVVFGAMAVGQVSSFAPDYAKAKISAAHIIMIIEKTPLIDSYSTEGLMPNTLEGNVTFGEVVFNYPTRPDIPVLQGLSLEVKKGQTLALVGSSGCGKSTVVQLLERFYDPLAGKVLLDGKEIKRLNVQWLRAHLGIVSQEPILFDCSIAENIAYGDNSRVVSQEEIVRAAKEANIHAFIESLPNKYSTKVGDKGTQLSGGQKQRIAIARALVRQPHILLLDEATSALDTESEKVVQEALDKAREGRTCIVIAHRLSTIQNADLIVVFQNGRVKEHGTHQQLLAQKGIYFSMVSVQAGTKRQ
Experiment: Substrate activity at human P-gp assessed as efflux ratio by cell based assay
Conditions: not told
The answer should be a number; do not append a unit.

Cc1nc2c(F)cc(-c3cc(=O)n4cc(N5CCN(C)CC5)ccc4n3)cc2o1 : 1.1
Cc1cn2cc(-c3cc(=O)n4cc(N5CCC(N6CCCC6)CC5)ccc4n3)cc(C(F)(F)F)c2n1 : 8.5
Cc1cn2nc(-c3cc(=O)n4cc(C5CCN(C)CC5)cc(C)c4n3)cc2c(C)n1 : 1.2
CCc1nc(C)cn2nc(-c3cc(=O)n4cc(C5CCN(C)CC5)cc(C)c4n3)cc12 : 2
Cc1cn2cc(-c3cc(=O)n4cc(N5CCN(C)CC5)ccc4n3)cc(C)c2n1 : 2.4

Short answer on P-gp (ABCB1) (Homo sapiens, UniProt P08183) for `Cc1cn2cc(-c3cc(=O)n4cc(N5CCC(N6CCC6)CC5)ccc4n3)cc2c(C)n1` , efflux ratio: 6.6

Lab note: molecule `CCN1CCC(c2cc(C)c3nc(-c4cc5c(C)nc(C)cn5n4)cc(=O)n3c2)CC1` tested on P-gp (ABCB1) (Homo sapiens, UniProt P08183); recorded efflux ratio was 1.4

Measured efflux ratio (P-gp (ABCB1) (Homo sapiens, UniProt P08183)), entry `Cc1cn2cc(-c3cc(=O)n4cc(N5CCN(C)CC5)ccc4n3)cc(F)c2n1` : 1.9

----------
log10(EC1.5): recorded values
Species: Homo sapiens
Assay: Inhibition of mRNA splicing of SMN2 exon 7 in GM03813 fibroblasts derived from human SMA type 1 patient after 24 hrs by RT-qPCR analysis
The base-10 logarithm of EC1.5, taken with EC1.5 in nM, is what appears here.

// known answers, use as guide
Cc1nc2ccc(-c3cc(=O)n4cc(N5CCN(C)CC5)ccc4n3)cc2o1 : 2.17
Cc1cn2cc(-c3cc(=O)n4cc(N5CCN(C)CC5)ccc4n3)ccc2n1 : 2.26
Cc1cn2cc(-c3cc(=O)n4cc(N5CCNCC5)ccc4n3)cc(F)c2n1 : 0.00

Record summary for `Cc1cn2cc(-c3cc(=O)n4cc(N5CCN(C)CC5)ccc4n3)cc(F)c2n1` : reported log10(EC1.5) = 1.51

Field log10(EC1.5) (entry `CCN1CCC(c2cc(C)c3nc(-c4cc5c(C)nc(C)cn5n4)cc(=O)n3c2)CC1` ) reads 1.48

Item: `CCc1nc(C)cn2nc(-c3cc(=O)n4cc(C5=CCNCC5)cc(C)c4n3)cc12` | log10(EC1.5): 0.78

molecule `Cc1cn2nc(-c3cc(=O)n4cc(N5CCN(C)CC5)ccc4n3)cc2c(C)n1` , log10(EC1.5) observed: 1.96

----------
Species: Homo sapiens
Experiment: Inhibition of mRNA splicing of SMN2 exon 7 in GM03813 fibroblasts derived from human SMA type 1 patient after 24 hrs by RT-qPCR analysis
observedProperty: EC1.5

Worked set:
Cc1nc2ccc(-c3cc(=O)n4cc(N5CCN(C)CC5)ccc4n3)cn2n1 : 314 nM
CCc1nc(C)cn2nc(-c3cc(=O)n4cc(C5CCN(C)CC5)cc(C)c4n3)cc12 : 23 nM
CN1CCN(c2ccc3nc(-c4ccc5nccn5c4)cc(=O)n3c2)CC1 : 582 nM

Note: attention shifts to another entry.
For reference, reported EC1.5 for `CCc1nc(C)cn2nc(-c3cc(=O)n4cc(N5CCN6CCC[C@H]6C5)ccc4n3)cc12` stands at 40 nM

----------
Experiment: Oral bioavailability in Cynomolgus monkey at 1 mg/kg
Assay type: ADME, organism-based, Macaca fascicularis
Conditions: in vivo
observedProperty: bioavailability (%)
Please respond with the number in % and leave the unit unwritten.

Cc1cn2cc(-c3cc(=O)n4cc(N5CCN(C)CC5)ccc4n3)cc(F)c2n1 : 84
CCc1nc(C)cn2nc(-c3cc(=O)n4cc(C5CCN(C)CC5)cc(C)c4n3)cc12 : 52

// switching to the query compound
So for `Cc1cn2cc(-c3cc(=O)n4cc(N5CCN(C)CC5)ccc4n3)cc(C)c2n1` , the logged bioavailability turned out to be 100

----------
Test: AUC in plasma of wild type mouse at 3 mg/kg, ip measured on postnatal day 10
Format: ADME, organism-based
observedProperty: AUC
Write the numeric value and follow it with the unit.

CCc1nc(C)cn2nc(-c3cc(=O)n4cc(C5CCN(C)CC5)cc(C)c4n3)cc12 : 5900 ng·h/mL

Kindly consider the entry below.
The molecule identified as `Cc1cn2cc(-c3cc(=O)n4cc(N5CCN(C)CC5)ccc4n3)cc(C)c2n1` registered its AUC at 1300 ng·h/mL

----------
Organism: Homo sapiens
Assay: Inhibition of mRNA splicing of SMN2 exon 7 in fibroblasts derived from human SMA type 1/2/3 patient assessed as increase in SMN protein level after 48 hrs by HTRF assay
Note to self: EC1.5 under 200 nM means Criterion met, ties and anything higher get Criterion not met.

Cc1cn2cc(-c3cc(=O)n4cc(N5CCC(N6CCC6)CC5)ccc4n3)cc2c(C)n1 : Criterion met
CCc1nc(C)cn2nc(-c3cc(=O)n4cc(C5CCN(C)CC5)cc(C)c4n3)cc12 : Criterion met
CCc1nc(C)cn2nc(-c3cc(=O)n4cc(N5CCN6CCC[C@H]6C5)ccc4n3)cc12 : Criterion met
Cc1cn2nc(-c3cc(=O)n4cc(N5CCN(C)CC5)ccc4n3)cc2c(C)n1 : Criterion met

Asked: Consider `Cc1cn2cc(-c3cc(=O)n4cc(N5CCN(C)CC5)ccc4n3)ccc2n1` . Does its EC1.5 lie strictly below 200 nM?
Given back: Criterion not met

----------
Recorded remaining at 5 h for the following compounds
Test: Stability in human plasma assessed as compound remaining after 5 hrs
Format: ADME, cell-free
Conditions: read-out: Stability
Provide only the numeric value, understood in %.

CC(=O)c1cc2ccc(F)cc2c(=O)o1 : 16
CCN1CCN(c2ccc3cc(-c4cn5cc(C)nc(C)c5n4)c(=O)oc3c2)C[C@@H]1C : 93
Cc1cn2cc(-c3cc4ccc(N5CCN(C)CC5)cc4c(=O)o3)nc2c(C)n1 : 55

Next compound, remaining at 5 h to be filled in.
Lab note: `Cc1cn2cc(-c3cc4ccc(F)cc4c(=O)o3)nc2c(C)n1` gave remaining at 5 h of 30

----------
Test: Octanol-aqueous phosphate buffer distribution coefficient, log D of the compound at pH 7.4 at 100 mM after 24 hrs by LC-MS based shake flask method
Format: physicochemical
observedProperty: logD at 24 h

Example entries and their recorded answers appear below.
Cc1cn2cc(-c3cc(=O)n4cc(N5CCC(N6CCC6)CC5)ccc4n3)cc2c(C)n1 : 1.53
CCc1nc(C)cn2nc(-c3cc(=O)n4cc(C5CCN(C)CC5)cc(C)c4n3)cc12 : 2.26

Reported logD at 24 h of `Cc1cn2cc(-c3cc(=O)n4cc(N5CCC(N6CCCC6)CC5)ccc4n3)cc(C(F)(F)F)c2n1` : 1.45

----------
Assay: Fraction unbound in mouse plasma
Format: ADME, cell-free
Measured fraction unbound accompanies every entry in the list below.
Give only the figure.

Example compounds with recorded fraction unbound:
Cc1cn2cc(-c3cc(=O)n4cc(N5CCN(C)CC5)ccc4n3)cc(F)c2n1 : 0.17
CCc1nc(C)cn2nc(-c3cc(=O)n4cc(C5CCN(C)CC5)cc(C)c4n3)cc12 : 0.02

Please turn your attention to the following entry.
Entry under test: `Cc1cn2cc(-c3cc(=O)n4cc(N5CCN(C)CC5)ccc4n3)cc(C)c2n1` . Its fraction unbound was 0.16

----------
Assay: Clearance in Cynomolgus monkey at 0.3 mg/kg, iv
Assay type: ADME, organism-based, Macaca fascicularis
Conditions: in vivo
observedProperty: clearance

Solved entries:
Cc1cn2cc(-c3cc(=O)n4cc(N5CCN(C)CC5)ccc4n3)cc(F)c2n1 : 0.582 L/h/kg
Cc1cn2cc(-c3cc(=O)n4cc(N5CCN(C)CC5)ccc4n3)cc(C)c2n1 : 0.45 L/h/kg

Here's the next entry for you.
The molecule identified as `CCc1nc(C)cn2nc(-c3cc(=O)n4cc(C5CCN(C)CC5)cc(C)c4n3)cc12` registered its clearance at 0.3 L/h/kg

----------
Each entry below carries its recorded EC1.5.
Organism: Homo sapiens
Assay: Inhibition of mRNA splicing of SMN2 exon 7 in fibroblasts derived from human SMA type 1/2/3 patient assessed as increase in SMN protein level after 48 hrs by HTRF assay

Cc1nc2ccc(-c3cc(=O)n4cc(N5CCN(C)CC5)ccc4n3)cn2n1 : 820 nM
CN1CCN(c2ccc3nc(-c4ccc5nccn5c4)cc(=O)n3c2)CC1 : 3400 nM
Cc1cn2cc(-c3cc(=O)n4cc(N5CCN(C)CC5)ccc4n3)cc(F)c2n1 : 40 nM
Cc1nc2c(F)cc(-c3cc(=O)n4cc(N5CCNCC5)ccc4n3)cc2o1 : 4 nM
Cc1cn2cc(-c3cc(=O)n4cc(N5CCN(C)CC5)ccc4n3)cc(C)c2n1 : 14 to 55 nM

// recorded EC1.5 for `CCc1nc(C)cn2nc(-c3cc(=O)n4cc(C5=CCNCC5)cc(C)c4n3)cc12` : 15 nM

Looking up `Cc1cn2cc(-c3cc(=O)n4cc(N5CCNCC5)ccc4n3)cc(F)c2n1` , I found its EC1.5 recorded as 9 nM

Lab note: measured EC1.5 of `Cc1nc2ccc(-c3cc(=O)n4cc(N5CCN(C)CC5)ccc4n3)cc2o1` was 395 nM

Record `CCN1CCC(c2cc(C)c3nc(-c4cc5c(C)nc(C)cn5n4)cc(=O)n3c2)CC1` , field EC1.5: 84 nM
